# REL TO WT, AFTER PEG MODIFICATION values compiled below
# Study Target: Thrombin (Homo sapiens, UniProt P00734)
# Procedure Details: thrombin inhibition activity assay (D.4), specific activity
# Assay type: biochemical
# Assay Context: cysteine-PEGylated protein relative to wild type PN-1

Molecule: S263C (conjugate, UniProt P07093 20-398, looked up, variant S263C, PEG) Glia-derived nexin: SHFNPLSLEELGSNTGIQVFNQIVKSRPHDNIVISPHGIASVLGMLQLGADGRTKKQLAMVMRYGVNGVGKILKKINKAIVSKKNKDIVTVANAVFVKNASEIEVPFVTRNKDVFQCEVRNVNFEDPASACDSINAWVKNETRDMIDNLLSPDLIDGVLTRLVLVNAVYFKGLWKSRFQPENTKKRTFVAADGKSYQVPMLAQLSVFRCGSTSAPNDLWYNFIELPYHGESISMLIALPTESSTPLSAIIPHISTKTIDSWMCIMVPKRVQVILPKFTAVAQTDLKEPLKVLGITDMFDSSKANFAKITTGSENLHVSHILQKAKIEVSEDGTKASAATTAILIARSSPPWFIVDRPFLFFIRHNPTGAVLFMGQINKP
REL TO WT, AFTER PEG MODIFICATION: 0.19
//
Molecule: N99C;N140C (protein, UniProt P07093 20-398, looked up, variant N99C N140C) Glia-derived nexin: SHFNPLSLEELGSNTGIQVFNQIVKSRPHDNIVISPHGIASVLGMLQLGADGRTKKQLAMVMRYGVNGVGKILKKINKAIVSKKNKDIVTVANAVFVKCASEIEVPFVTRNKDVFQCEVRNVNFEDPASACDSINAWVKCETRDMIDNLLSPDLIDGVLTRLVLVNAVYFKGLWKSRFQPENTKKRTFVAADGKSYQVPMLAQLSVFRCGSTSAPNDLWYNFIELPYHGESISMLIALPTESSTPLSAIIPHISTKTIDSWMSIMVPKRVQVILPKFTAVAQTDLKEPLKVLGITDMFDSSKANFAKITTGSENLHVSHILQKAKIEVSEDGTKASAATTAILIARSSPPWFIVDRPFLFFIRHNPTGAVLFMGQINKP
REL TO WT, AFTER PEG MODIFICATION: 0.80
//
Molecule: R63C (conjugate, UniProt P07093 20-398, looked up, variant R63C, PEG) Glia-derived nexin: SHFNPLSLEELGSNTGIQVFNQIVKSRPHDNIVISPHGIASVLGMLQLGADGRTKKQLAMVMCYGVNGVGKILKKINKAIVSKKNKDIVTVANAVFVKNASEIEVPFVTRNKDVFQCEVRNVNFEDPASACDSINAWVKNETRDMIDNLLSPDLIDGVLTRLVLVNAVYFKGLWKSRFQPENTKKRTFVAADGKSYQVPMLAQLSVFRCGSTSAPNDLWYNFIELPYHGESISMLIALPTESSTPLSAIIPHISTKTIDSWMSIMVPKRVQVILPKFTAVAQTDLKEPLKVLGITDMFDSSKANFAKITTGSENLHVSHILQKAKIEVSEDGTKASAATTAILIARSSPPWFIVDRPFLFFIRHNPTGAVLFMGQINKP
REL TO WT, AFTER PEG MODIFICATION: 0.25
//
Molecule: G52C (conjugate, UniProt P07093 20-398, looked up, variant G52C, PEG) Glia-derived nexin: SHFNPLSLEELGSNTGIQVFNQIVKSRPHDNIVISPHGIASVLGMLQLGADCRTKKQLAMVMRYGVNGVGKILKKINKAIVSKKNKDIVTVANAVFVKNASEIEVPFVTRNKDVFQCEVRNVNFEDPASACDSINAWVKNETRDMIDNLLSPDLIDGVLTRLVLVNAVYFKGLWKSRFQPENTKKRTFVAADGKSYQVPMLAQLSVFRCGSTSAPNDLWYNFIELPYHGESISMLIALPTESSTPLSAIIPHISTKTIDSWMSIMVPKRVQVILPKFTAVAQTDLKEPLKVLGITDMFDSSKANFAKITTGSENLHVSHILQKAKIEVSEDGTKASAATTAILIARSSPPWFIVDRPFLFFIRHNPTGAVLFMGQINKP
REL TO WT, AFTER PEG MODIFICATION: 0.1
//
Molecule: E125C (conjugate, UniProt P07093 20-398, looked up, variant E125C, PEG) Glia-derived nexin: SHFNPLSLEELGSNTGIQVFNQIVKSRPHDNIVISPHGIASVLGMLQLGADGRTKKQLAMVMRYGVNGVGKILKKINKAIVSKKNKDIVTVANAVFVKNASEIEVPFVTRNKDVFQCEVRNVNFCDPASACDSINAWVKNETRDMIDNLLSPDLIDGVLTRLVLVNAVYFKGLWKSRFQPENTKKRTFVAADGKSYQVPMLAQLSVFRCGSTSAPNDLWYNFIELPYHGESISMLIALPTESSTPLSAIIPHISTKTIDSWMSIMVPKRVQVILPKFTAVAQTDLKEPLKVLGITDMFDSSKANFAKITTGSENLHVSHILQKAKIEVSEDGTKASAATTAILIARSSPPWFIVDRPFLFFIRHNPTGAVLFMGQINKP
REL TO WT, AFTER PEG MODIFICATION: 0.3
//
Molecule: D192C (conjugate, UniProt P07093 20-398, looked up, variant D192C, PEG) Glia-derived nexin: SHFNPLSLEELGSNTGIQVFNQIVKSRPHDNIVISPHGIASVLGMLQLGADGRTKKQLAMVMRYGVNGVGKILKKINKAIVSKKNKDIVTVANAVFVKNASEIEVPFVTRNKDVFQCEVRNVNFEDPASACDSINAWVKNETRDMIDNLLSPDLIDGVLTRLVLVNAVYFKGLWKSRFQPENTKKRTFVAACGKSYQVPMLAQLSVFRCGSTSAPNDLWYNFIELPYHGESISMLIALPTESSTPLSAIIPHISTKTIDSWMSIMVPKRVQVILPKFTAVAQTDLKEPLKVLGITDMFDSSKANFAKITTGSENLHVSHILQKAKIEVSEDGTKASAATTAILIARSSPPWFIVDRPFLFFIRHNPTGAVLFMGQINKP
REL TO WT, AFTER PEG MODIFICATION: 0.18
//
Molecule: E230C (conjugate, UniProt P07093 20-398, looked up, variant E230C, PEG) Glia-derived nexin: SHFNPLSLEELGSNTGIQVFNQIVKSRPHDNIVISPHGIASVLGMLQLGADGRTKKQLAMVMRYGVNGVGKILKKINKAIVSKKNKDIVTVANAVFVKNASEIEVPFVTRNKDVFQCEVRNVNFEDPASACDSINAWVKNETRDMIDNLLSPDLIDGVLTRLVLVNAVYFKGLWKSRFQPENTKKRTFVAADGKSYQVPMLAQLSVFRCGSTSAPNDLWYNFIELPYHGCSISMLIALPTESSTPLSAIIPHISTKTIDSWMSIMVPKRVQVILPKFTAVAQTDLKEPLKVLGITDMFDSSKANFAKITTGSENLHVSHILQKAKIEVSEDGTKASAATTAILIARSSPPWFIVDRPFLFFIRHNPTGAVLFMGQINKP
REL TO WT, AFTER PEG MODIFICATION: 0.40
//
Molecule: N99C (conjugate, UniProt P07093 20-398, looked up, variant N99C, PEG) Glia-derived nexin: SHFNPLSLEELGSNTGIQVFNQIVKSRPHDNIVISPHGIASVLGMLQLGADGRTKKQLAMVMRYGVNGVGKILKKINKAIVSKKNKDIVTVANAVFVKCASEIEVPFVTRNKDVFQCEVRNVNFEDPASACDSINAWVKNETRDMIDNLLSPDLIDGVLTRLVLVNAVYFKGLWKSRFQPENTKKRTFVAADGKSYQVPMLAQLSVFRCGSTSAPNDLWYNFIELPYHGESISMLIALPTESSTPLSAIIPHISTKTIDSWMSIMVPKRVQVILPKFTAVAQTDLKEPLKVLGITDMFDSSKANFAKITTGSENLHVSHILQKAKIEVSEDGTKASAATTAILIARSSPPWFIVDRPFLFFIRHNPTGAVLFMGQINKP
REL TO WT, AFTER PEG MODIFICATION: 1.0
